Attribution: ChEMBL document CHEMBL3407379

I'd be grateful if you could share measured pIC50 for these entries.
- System: MCF7
- Protocol Description: Cytotoxicity against human MCF7 cells assessed as cell viability after 48 hrs by MTT assay
- Assay type: functional, cell-based
- Measurement Parameters: MCF7, 48 h
Answers are plain numbers, as −log10 of the molar value.

Solved cases below.
C=C1CC[C@@H](C(C)C)[C@]12CC=C(c1cn(-c3cc(OC)c(OC)cc3OC)nn1)CC2 : 4.36
C=C1CCC[C@]2(C)CCC(c3cn(-c4ccccc4C(C)=O)nn3)=CC[C@@]12C : 4.52
C=C1CCC[C@]2(C)CCC(c3cn(-c4cc(OC)c(OC)cc4OC)nn3)=CC[C@@]12C : 4.39
C=C1CCC[C@]2(C)CCC(c3cn(-c4ccc(Cl)cc4)nn3)=CC[C@@]12C : 4.45

Provide pIC50 values for the following items, in order.
1. C=C1CCC[C@]2(C)CCC(C=O)=CC[C@@]12C
2. CC1(C)CCC[C@]1(C)c1ccc(C=O)cc1
3. C=C1CC[C@@H](C(C)C)[C@]12CC=C(c1cn(CC(=O)Nc3ccc(C)cc3)nn1)CC2
4. C=C1CCC[C@]2(C)CCC(c3cn(-c4cccc(OC)c4)nn3)=CC[C@@]12C

1. 3.50
2. 3.69
3. 3.85
4. 4.25

Give pIC50 for all compounds that follow.
1. C=C1CCC[C@]2(C)CCC(c3cn(-c4cccc([N+](=O)[O-])c4)nn3)=CC[C@@]12C
2. C=C1CCC[C@]2(C)CCC(c3cn(CC(=O)Nc4ccccc4)nn3)=CC[C@@]12C
3. C=C1CC[C@@H](C(C)C)[C@]12CC=C(c1cn(-c3ccc(OC)cc3)nn1)CC2
4. C#CC1=CC[C@@]2(C)C(=C)CCC[C@]2(C)CC1

1: 4.39; 2: 3.83; 3: 4.20; 4: 3.24

For every item below, please supply its pIC50.
1. COc1cccc2c1C(=O)c1c(O)c3c(c(O)c1C2=O)C[C@@](O)(C(=O)CO)C[C@@H]3O[C@H]1C[C@H](N)[C@H](O)[C@H](C)O1
2. CC1(C)CCCC23C=C[C@](C)(CC[C@@]12C)OO3
3. C=C1CCC[C@]2(C)CCC(c3cn(-c4ccc(OC)cc4)nn3)=CC[C@@]12C
4. C=C1CCC[C@]2(C)CCC(c3cn(-c4ccc(C(C)=O)cc4)nn3)=CC[C@@]12C
5. C=C1CCC[C@]2(C)CCC(c3cn(-c4ccc(I)cc4)nn3)=CC[C@@]12C
6. C=C1CCC[C@]2(C)CCC(c3cn(CC(=O)Nc4ccc(C)cc4)nn3)=CC[C@@]12C
7. C#CC1=CC[C@]2(CC1)C(=C)CC[C@H]2C(C)C

5.65
3.89
3.93
4.18
3.79
4.10
3.87

###

- Tested on: DU-145
- Protocol Description: Cytotoxicity against human DU145 cells assessed as cell viability after 48 hrs by MTT assay
- Assay type: functional, cell-based
- Measurement Parameters: DU-145, 48 h
Consider the following molecules; for each one, report its pIC50.
Answers are plain numbers, as −log10 of the molar value.

Below, 10 molecules whose answers are already recorded.
C=C1CCC[C@]2(C)CCC(c3cn(CC(=O)Nc4ccccc4)nn3)=CC[C@@]12C : 3.83
C=C1CCC[C@]2(C)CCC(C=O)=CC[C@@]12C : 3.82
C#CC1=CC[C@]2(CC1)C(=C)CC[C@H]2C(C)C : 3.92
C#CC1=CC[C@@]2(C)C(=C)CCC[C@]2(C)CC1 : 3.41
C=C1CC[C@@H](C(C)C)[C@]12CC=C(c1cn(-c3ccc(OC)cc3)nn1)CC2 : 4.19
C=C1CC[C@@H](C(C)C)[C@]12CC=C(c1cn(-c3cc(OC)c(OC)cc3OC)nn1)CC2 : 4.53
C=C1CCC[C@]2(C)CCC(c3cn(-c4ccc(C)cc4)nn3)=CC[C@@]12C : 3.88
C=C1CC[C@@H](C(C)C)[C@]12CC=C(c1cn(CC(=O)Nc3ccc(C)cc3)nn1)CC2 : 4.35
C=C1CC[C@@H](C(C)C)[C@]12CC=C(C=O)CC2 : 3.78
C=C1CCC[C@]2(C)CCC(c3cn(-c4ccccc4C(C)=O)nn3)=CC[C@@]12C : 4.31

Dear colleague, could you please provide pIC50 for the molecules listed below?
1. CC1(C)CCCC23C=C[C@](C)(CC[C@@]12C)OO3
2. CC1(C)CCCC2=CC=C(C=O)CC[C@]21C
3. C=C1CCC[C@]2(C)CCC(c3cn(CC(=O)Nc4ccc(C)cc4)nn3)=CC[C@@]12C

1. 3.94
2. 3.72
3. 3.59
